- Subject of test: PDGF-AB (Homo sapiens, UniProt P04085;P01127 P04085:87-211,P01127:82-190)
- Sequence (P01127 82-190, chain 2 of 2, other chains not shown): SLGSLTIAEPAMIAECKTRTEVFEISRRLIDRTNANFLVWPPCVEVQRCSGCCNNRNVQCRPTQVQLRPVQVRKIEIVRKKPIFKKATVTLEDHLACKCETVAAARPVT
- Assay summary: filter; +/-0.011; high affinity component; PBSM, 37 C
- Condition: tags: R&D Systems, E. coli; label: 5'-32P; three-way helix junction
Quantity measured: pKd
In textbook form, pKd equals minus log to base ten of the concentration in mol/L.

pKd for TGGGAGGGCGCGTTCTTCGTGGTTACTTTTAGTCCCGT (ssDNA, 3'-3' linked T at 3' end) [20t] ?
9.83

Continue with CACAGGCTACGGCACGTAGAGCATCACCATGATCCTGTGT (ssDNA, 3'-3' linked T at 3' end) [36t]
10.03
